# System: NCI-H23 lung
# Assay name: NCI tumour cell line growth inhibition, 48 h
Assign TGI to each entry below.

# TGI lookup, item CO/C=C(/C(=O)OC)[C@@H]1C[C@@H]1c1ccc2ccccc2c1
> 100 µM

Also C(=N\Nc1ncc(-c2cc3cc4c(cc3o2)OCO4)s1)/c1ccco1 , if possible.
4.22 µM

Also COC(=O)c1cc2c(c(C(=O)OC)c1)CCC2 , if possible.
> 100 µM

Also Nc1ncnc2c1ncn2[C@H]1C=C[C@@H](NO)C1 , if possible.
> 100 µM

Also O=C(O)/C=C/c1ccc(Oc2ccccc2C(=O)O)o1 , if possible.
> 10 µM

Also COc1cc(-n2ccnc2-c2ccc3ccccc3c2)cc(OC)c1OC , if possible.
13.4 µM

Also CC1(C)N=C(N)N=C(N)N1c1ccc(CNC(=O)Nc2ccc(S(=O)(=O)F)c(Cl)c2)c(Cl)c1 , if possible.
> 100 µM

Also O=C(O)c1cccc(S(=O)(=O)NCCO)c1 , if possible.
> 100 µM

Also COc1ccc(CCN2CCN(CCCc3ccccc3)CC2)cc1 , if possible.
> 100 µM

Also O=C1c2ccccc2N(O)C1(c1ccccc1)C1CCCC=C1N1CCOCC1 (stereo not drawn) , if possible.
> 100 µM

Also NS(=O)(=O)c1ccc(NC(=O)N/N=C/c2ccccc2[N+](=O)[O-])cc1 , if possible.
> 100 µM

Also COc1ccc(Nc2nc(NCCNc3ccnc4cc(Cl)ccc34)nc(N3CCOCC3)n2)cc1 , if possible.
29.7 µM

Also ClCc1nc2ccccc2[nH]1 , if possible.
> 100 µM

* * *

# Test system: SK-MEL-2 melanoma
# Assay name: NCI tumour cell line growth inhibition, 48 h
Assign GI50 to each entry below.

Param readout = GI50; param system = SK-MEL-2 melanoma; param query = NCCCCC(NC(=O)C(N)CCCN=C(N)N)C(=O)NC(CCCCN)C(=O)NC(CCCN=C(N)N)C(=O)NC(CCCN=C(N)N)C(=O)NC(CCC(N)=O)C(=O)NC(CCCN=C(N)N)C(=O)NC(CCCN=C(N)N)C(=O)NC(CCCN=C(N)N)C(=O)NCC(=O)NCC(=O)O (centres undefined) ; response: value
> 50 µM

Also NC(=S)N/N=C/c1ccc(OC(=O)COc2cc(Cl)c(Cl)cc2Cl)cn1 , if possible.
12.7 µM

Also CCCc1nn(C)c2c(=O)[nH]c(-c3cc(S(=O)(=O)N4CCN(C)CC4)ccc3OCC)nc12 , if possible.
> 100 µM

Also CCC[CH2][Sn](=[O])[CH2]CCC , if possible.
> 50 µM

* * *

Assign TGI to each entry below.
# Tested on: MDA-MB-435
# Assay name: NCI tumour cell line growth inhibition, 48 h

Param readout = TGI; param system = MDA-MB-435; param query = Fc1cc(C2=Nn3c(COc4ccccc4Cl)nnc3S/C2=C\c2ccc(Cl)cc2)c(Cl)cc1Cl ; response: value
6.3 µM

Also O=c1cc(-c2ccc(F)cc2)[nH]c2ncccc12 , if possible.
33 µM

Also CSc1cc([C@@H]2C[C@H]2c2ccc(Cl)cc2)on1 , if possible.
45.1 µM

Also S=C(NCc1ccccc1)Nc1sc(=NCc2ccccc2)nc2sc3c(c12)CCN(N1CCc2c(sc4nc(=NCc5ccccc5)sc(NC(=S)NCc5ccccc5)c24)C1)C3 , if possible.
> 100 µM

Also C=C1C2CCC3C4(C)CCCC(C)(C(=O)O)C4CCC3(C2)C1OC(=O)/C(C)=C/C (stereo unspecified) , if possible.
> 100 µM

Also C[C@H](Nc1nc(N)c(N=O)c(=O)n1C)C(=O)O , if possible.
> 10 µM

* * *

# Tested on: MOLT-4 leukemia
# Assay name: NCI tumour cell line growth inhibition, 48 h
Measured attribute: TGI

# TGI lookup, item NCC(=O)Nc1ccccc1
> 100 µM

Also CC1=C(C#N)C23C(=O)N(c4ccccc4)C(=O)C2=C(O)C=CC3(O)N1Cc1ccc(Cl)cc1Cl (centres undefined) , if possible.
7.55 µM

Also CCOC(=O)CNC(=O)C(CCC(=O)N(C)O)NC(=O)CCC(N)C(=O)O (centres undefined) , if possible.
> 100 µM

Also O=C(O)c1cccc(S(=O)(=O)NCCO)c1 , if possible.
> 100 µM

Also NS(=O)(=O)c1ccc(NC(=O)N/N=C/c2ccccc2[N+](=O)[O-])cc1 , if possible.
> 100 µM

Also COC(=O)C1CCC(=O)N1C(c1ccc(OC)cc1)c1cc(OC)c(OC)c(OC)c1 (centres undefined) , if possible.
> 61.1 µM

Also CCC[CH2][Sn](=[O])[CH2]CCC , if possible.
> 50 µM

Also COC(=O)c1ccc(NCc2cc(OC)ccc2OC)cc1 , if possible.
> 100 µM

Also Nn1c(CCCCCCCCc2nnc(-c3c(O)ccc4ccccc34)n2N)nnc1-c1c(O)ccc2ccccc12 , if possible.
> 100 µM

Also O=C(OC1=CCN(Br)C1=O)C1=C(O)C(=O)N(Br)C1 , if possible.
87.7 µM

Also CC1SC(c2ccccc2Cl)N(NC(=O)C(O)c2ccccc2)C1=O (centres undefined) , if possible.
> 100 µM

Also COC(=O)Nc1nc2ccc(NS(=O)(=O)c3cccs3)cc2[nH]1 , if possible.
77.4 µM

Also O=C1c2ccccc2N(O)C1(c1ccccc1)C1CCCC=C1N1CCOCC1 (centres undefined) , if possible.
> 100 µM

Also CCOC(=O)C(=Cc1ccc(C#N)cc1)C(=O)OCC , if possible.
11.5 µM

Also CCN(CC)CCN(CC)CC.CCN(CC)CCN(CC)CC.[Cu+2].[Cu+2].[O-][Cl+3]([O-])([O-])[O-].[OH3+].[OH3+] , if possible.
> 100 µM

Also O=C(O)c1nc2cc(Cl)ccc2[nH]c1=O , if possible.
> 100 µM

Also Cc1ccc(NCC2(/N=C/c3ccccc3)OC(CO)C(O)C2O)cc1 (centres undefined) , if possible.
> 100 µM

Also COc1ccc(/C=N\N(C)Cc2cccc3ccsc23)cc1 , if possible.
> 100 µM

Also O=C(C[n+]1ccccc1)N/N=C(/CCC(=O)N(Cc1ccccc1)Cc1ccccc1)CC(=O)c1ccccc1 , if possible.
> 100 µM

Also CC1=C([Te]c2ccccc2)C(=O)c2ccccc2C1=O , if possible.
1.3 µM

Also COC(=O)CCC(=O)Nc1ccc(Cl)cc1C , if possible.
> 100 µM

Also Nc1nc(Cl)cc(NCC2(CCO)CCC2)n1 , if possible.
> 100 µM

Also O=C(O)Cc1cccc2c(=O)cc(-c3ccccc3)oc12 , if possible.
> 824 µM

Also Cn1c(-c2ccco2)ccc1-c1ccc(C=O)o1 , if possible.
74.6 µM

Also COc1ccc2[nH]cc(CCNC(=O)[C@H](Cc3ccc(O)cc3)NC(=O)[C@@H](NCC(F)(F)F)C(C)C)c2c1 , if possible.
> 100 µM

Also CCn1c(SCC(=O)N/N=C2\SCC(=O)N2c2ccc(C)cc2)nc2ccccc2c1=O , if possible.
> 100 µM

Also Cc1ccc2c(C(C[N+](=O)[O-])c3ccccc3)c(-c3ccccc3)[nH]c2c1 (centres undefined) , if possible.
> 95 µM

Also NC1=Nc2ccccc2Sc2nncn21 , if possible.
> 100 µM

Also Cc1cc2c(F)c(Oc3ncnc(Nc4ccc(N5C[C@@H](C)N[C@@H](C)C5)cc4)c3C#N)cc(F)c2[nH]1 , if possible.
5.44 µM

Also CCCc1nn(C)c2c(=O)[nH]c(-c3cc(S(=O)(=O)N4CCN(C)CC4)ccc3OCC)nc12 , if possible.
> 100 µM

Also FC1(F)ON2CCc3ccccc3C2[C@H]1c1ccccc1 (some centres undefined) , if possible.
> 100 µM

Also CCOC(=O)C12CCCC1(O)N(NC(=O)OC)C(C)=C2C(=O)OC (centres undefined) , if possible.
> 100 µM

Also COc1ccc(N2C(=O)C3CC(c4ccc(Br)cc4)c4c([nH]c5ccccc45)C3C2=O)cc1 (centres undefined) , if possible.
29 µM

Also COC(=O)c1cc2c(c(C(=O)OC)c1)CCC2 , if possible.
> 100 µM

Also CCCn1cc2c(=O)[nH]c(SC)nc2n1 , if possible.
> 100 µM

Also NC(=S)N/N=C/c1ccc(OC(=O)COc2cc(Cl)c(Cl)cc2Cl)cn1 , if possible.
> 100 µM

Also C=CCC1(C(=O)OC)CCC/C(=N\O)C1 (centres undefined) , if possible.
> 10 µM

Also COC(=O)CCc1ccc(CCC(=O)OC)cc1 , if possible.
> 100 µM

Also COc1cc(-c2nn(-c3cccc(NC(=O)Nc4ccc(Cl)c(C(F)(F)F)c4)c3)cc2-c2ccncc2)ccc1Cl , if possible.
7.96 µM

Also Nc1nc(=O)n(C2CCC(CO)O2)cc1F (centres undefined) , if possible.
> 100 µM

Also Cc1cn(C2CC(n3cc(Cn4ccc(=O)[nH]c4=O)nn3)C(CO)O2)c(=O)[nH]c1=O (centres undefined) , if possible.
> 100 µM

Also CC(NC1=NCCO1)c1ccccc1Cl (centres undefined) , if possible.
> 100 µM

Also O=C1c2ccccc2C(=O)N1CCc1ncc(-c2ccccc2)[nH]1 , if possible.
> 100 µM

Also CC1C(C)(C)C23CC12C1(OCCO1)C3Br (centres undefined) , if possible.
> 100 µM

Values were extracted from PubChem BioAssay (NCI).
